Below, each entry is listed alongside its reported μM substrate hydrolysed/hr.
biological target: Human Lactase Phloridzin Hydrolase (hLPH) (Homo sapiens); construct: endogenous in cells; host or cells: Caco-2 cells held at confluence for 21 days; trans-membrane protein extract passed through a G-25 Sephadex spin column; test: hLPH enzyme assay (glucoside hydrolysis by LPH extract from Caco-2 cells); type: in vitro ADME; conditions: glucoside 1.0 mM, 10% LPH extract (Caco2 cell-line), 1 hour at 37° C., pH 6.0
Sequence (P09848 869-1927): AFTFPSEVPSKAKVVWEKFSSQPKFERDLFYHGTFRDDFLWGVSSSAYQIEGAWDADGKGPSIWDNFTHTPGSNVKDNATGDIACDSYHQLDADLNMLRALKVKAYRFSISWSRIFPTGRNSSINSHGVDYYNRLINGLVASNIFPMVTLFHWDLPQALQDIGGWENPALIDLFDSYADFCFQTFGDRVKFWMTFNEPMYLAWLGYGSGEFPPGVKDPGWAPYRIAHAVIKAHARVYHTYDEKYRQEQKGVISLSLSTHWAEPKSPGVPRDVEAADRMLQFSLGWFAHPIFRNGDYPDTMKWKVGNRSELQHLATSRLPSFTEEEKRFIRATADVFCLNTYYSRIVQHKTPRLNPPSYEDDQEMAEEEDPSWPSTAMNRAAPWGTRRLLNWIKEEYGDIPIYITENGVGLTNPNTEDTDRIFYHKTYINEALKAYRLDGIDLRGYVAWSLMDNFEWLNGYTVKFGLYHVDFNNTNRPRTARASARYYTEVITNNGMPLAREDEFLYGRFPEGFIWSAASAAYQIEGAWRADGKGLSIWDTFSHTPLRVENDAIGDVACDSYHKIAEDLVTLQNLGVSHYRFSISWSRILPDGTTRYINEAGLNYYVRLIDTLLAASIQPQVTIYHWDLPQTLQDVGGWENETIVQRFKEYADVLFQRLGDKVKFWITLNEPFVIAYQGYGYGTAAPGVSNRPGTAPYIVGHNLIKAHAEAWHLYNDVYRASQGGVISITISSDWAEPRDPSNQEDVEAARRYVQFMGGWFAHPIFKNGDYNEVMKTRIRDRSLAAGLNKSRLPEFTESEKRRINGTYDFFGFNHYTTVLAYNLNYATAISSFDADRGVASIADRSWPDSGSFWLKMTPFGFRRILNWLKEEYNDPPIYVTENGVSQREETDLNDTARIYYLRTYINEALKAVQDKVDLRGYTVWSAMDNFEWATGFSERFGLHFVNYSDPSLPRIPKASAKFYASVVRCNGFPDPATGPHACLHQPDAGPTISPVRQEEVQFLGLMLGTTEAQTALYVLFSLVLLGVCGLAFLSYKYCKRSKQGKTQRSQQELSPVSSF

>  <Compound>
O=c1c(O[C@@H]2O[C@H](CO)[C@@H](O)[C@H](O)[C@H]2O)c(-c2ccc(O)c(O)c2)oc2cc(O)cc(O)c12 [Quercetin-3-glucoside]

>  <μM substrate hydrolysed/hr>
0.178 μM substrate hydrolysed/hr

$$$$
>  <Compound>
O=c1c(O[C@@H]2O[C@H](CO)[C@@H](O)[C@H](O)[C@H]2O)c(-c2ccc(O)cc2)oc2cc(O)cc(O)c12 [Kaempferol 3-O-glucoside]

>  <μM substrate hydrolysed/hr>
0.224 μM substrate hydrolysed/hr

$$$$
>  <Compound>
O=c1cc(-c2ccc(O)c(O)c2)oc2cc(O[C@@H]3O[C@H](CO)[C@@H](O)[C@H](O)[C@H]3O)cc(O)c12 [Luteolin-7-glucoside]

>  <μM substrate hydrolysed/hr>
0.814 μM substrate hydrolysed/hr

$$$$

---

molecular target: SGLT1 (Homo sapiens, UniProt P13866); construct: endogenous in cells; host or cells: differentiated Caco-2 cell monolayers (ATCC); assay: Glucose transport inhibitor cell screening assay, 5 mM D-glucose for 15 minutes (SGLT1 inhibition); assay type: cell-based; conditions: Caco-2 cell model, 5 mM D-glucose
Sequence (P13866 whole entry): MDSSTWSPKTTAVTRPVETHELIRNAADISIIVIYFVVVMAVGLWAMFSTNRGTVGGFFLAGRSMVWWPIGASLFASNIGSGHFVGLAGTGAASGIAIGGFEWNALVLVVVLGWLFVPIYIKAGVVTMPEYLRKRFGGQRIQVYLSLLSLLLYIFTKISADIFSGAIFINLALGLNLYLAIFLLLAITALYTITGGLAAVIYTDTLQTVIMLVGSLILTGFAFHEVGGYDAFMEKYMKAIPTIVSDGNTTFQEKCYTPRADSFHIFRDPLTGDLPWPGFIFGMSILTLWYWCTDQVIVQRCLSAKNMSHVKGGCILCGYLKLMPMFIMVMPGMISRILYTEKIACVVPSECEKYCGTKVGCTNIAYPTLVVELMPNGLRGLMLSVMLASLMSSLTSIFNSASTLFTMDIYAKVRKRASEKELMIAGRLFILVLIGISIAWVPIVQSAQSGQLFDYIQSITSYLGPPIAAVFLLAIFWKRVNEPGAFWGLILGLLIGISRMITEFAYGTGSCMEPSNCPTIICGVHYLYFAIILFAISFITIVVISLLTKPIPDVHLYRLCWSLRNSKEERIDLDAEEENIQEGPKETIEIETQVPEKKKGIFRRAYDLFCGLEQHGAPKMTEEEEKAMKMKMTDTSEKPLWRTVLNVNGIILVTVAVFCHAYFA
Observation type: SGLT1 inhibitory activity (in words)

>  <Molecule>
O=C(/C=C/c1ccc(O)c(O)c1)O[C@@H]1C[C@](O)(C(=O)O)C[C@@H](O)[C@H]1O [chlorogenic acid]

>  <Observation type>
SGLT1 inhibitory activity (in words)

>  <Result>
no inhibitory activity

$$$$
>  <Molecule>
O=C(O)/C=C/c1ccc(O)c(O)c1 [caffeic acid]

>  <Observation type>
SGLT1 inhibitory activity (in words)

>  <Result>
no inhibitory activity

$$$$

---

Below, each entry is listed alongside its reported Resistance to hydrolysis-% Q4G.
target: Human Lactase Phloridzin Hydrolase (hLPH) (Homo sapiens); construct: endogenous in cells; host or cells: Caco-2 cells held at confluence for 21 days; trans-membrane protein extract passed through a G-25 Sephadex spin column; test: hLPH enzyme assay (glucoside hydrolysis by LPH extract from Caco-2 cells); format: in vitro ADME; conditions: relative to Q4G; glucoside 1.0 mM, 10% LPH extract, 1 hour at 37° C.

>  <Molecule>
O=C(CCc1ccc(O)cc1)c1c(O)cc(O)cc1O[C@@H]1O[C@H](CO)[C@@H](O)[C@H](O)[C@H]1O [Phloridzin, reference compound]

>  <Unit name>
%

>  <Resistance to hydrolysis-% Q4G>
83.64

$$$$
>  <Molecule>
OC[C@H]1O[C@@H](Oc2cc3c(O)cc(O)cc3[o+]c2-c2ccc(O)cc2)[C@H](O)[C@@H](O)[C@@H]1O [Pelargonidin-3-glucoside]

>  <Unit name>
%

>  <Resistance to hydrolysis-% Q4G>
58.94

$$$$
>  <Molecule>
O=c1cc(-c2ccc(O)c(O)c2)oc2cc(O[C@@H]3O[C@H](CO)[C@@H](O)[C@H](O)[C@H]3O)cc(O)c12 [Luteolin-7-glucoside]

>  <Unit name>
%

>  <Resistance to hydrolysis-% Q4G>
73.72

$$$$
>  <Molecule>
O=c1c(O)c(-c2ccc(O)cc2)oc2cc(O[C@@H]3O[C@H](CO)[C@@H](O)[C@H](O)[C@H]3O)cc(O)c12 [Kaempferol 7-O-glucoside]

>  <Unit name>
%

>  <Resistance to hydrolysis-% Q4G>
80.05

$$$$
>  <Molecule>
O=c1cc(-c2ccc(O)cc2)oc2c([C@@H]3O[C@H](CO)[C@@H](O)[C@H](O)[C@H]3O)c(O)cc(O)c12 [Apigenin-8-C-glucoside]

>  <Unit name>
%

>  <Resistance to hydrolysis-% Q4G>
77.90

$$$$
